Species on record: Rattus norvegicus
Experiment: Open TG-GATES - Regimen: Single
Format: toxicity, organism-based, Sprague-Dawley
Set-up: regimen Single, gender Male, age 6 weeks
Conditions: in vivo, po, 1000 mg/kg, 3 h, tissue Plasma, route gavage, dose level High
OBSERVABLE: gamma-GTP

-- ask Requested read-out: gamma-GTP. Entry: CCOC(=O)CCC(=O)O[C@H]1[C@H](O[C@@H]2[C@@H](C)[C@H](O[C@H]3C[C@@](C)(OC)[C@@H](O)[C@H](C)O3)[C@@H](C)C(=O)O[C@H](CC)[C@@](C)(O)[C@H](O)[C@@H](C)C(=O)[C@H](C)C[C@@]2(C)O)O[C@H](C)C[C@@H]1N(C)C [ERYTHROMYCIN ETHYLSUCCINATE]
-- reply 1 IU/L

-- ask Item under review: COc1ccc2[nH]c([S+]([O-])Cc3ncc(C)c(OC)c3C)nc2c1 (stereo not given) [OMEPRAZOLE] . Reported gamma-GTP?
-- reply 0.8 IU/L

-- ask For the molecule shown here, CC(C)OC(=O)C(C)(C)Oc1ccc(C(=O)c2ccc(Cl)cc2)cc1 [FENOFIBRATE] , give the reported gamma-GTP.
-- reply 1.6 IU/L

-- ask Suppose we examine the molecule COC1=CC(=O)C[C@@H](C)[C@]12Oc1c(Cl)c(OC)cc(OC)c1C2=O [GRISEOFULVIN] ; what gamma-GTP value has been reported?
-- reply 1.6 IU/L

-- ask Please give the measured gamma-GTP for this molecule: NC(N)=Nc1nc(CSCCC(N)=NS(N)(=O)=O)cs1 [FAMOTIDINE]
-- reply 1.2 IU/L

----------
Species on record: Rattus norvegicus
Experiment: Open TG-GATES - Regimen: Single
Format: toxicity, organism-based, Sprague-Dawley
Design: regimen Single, gender Male, age 6 weeks
Details: in vivo, po, 0 mg/kg, 9 h, tissue Plasma, route gavage, dose level Control
Please mark class 1 if the recorded IP is equal to or greater than 10 mg/dL, and class 0 if it falls below.

-- ask Record NNC(=O)c1ccncc1 ; criterion: IP no lower than 10 mg/dL. Met?
-- reply class 0

-- ask Dear colleague, could you confirm whether CC1=C(/C=C/C(C)=C/C=C/C(C)=C/CO)C(C)(C)CCC1 has IP at or above 10 mg/dL?
-- reply class 1

-- ask Form field: IP at least 10 mg/dL? Entry: CN(C)CCN(Cc1cccs1)c1ccccn1
-- reply class 0

-- ask Confirm if IP reported for the compound COc1ccc2[nH]c([S+]([O-])Cc3ncc(C)c(OC)c3C)nc2c1 (centres undefined) is 10 mg/dL or above.
-- reply class 0

-- ask Quick check: does Cc1ccc(C)c(OCCCC(C)(C)C(=O)O)c1 have IP greater than or equal to 10 mg/dL?
-- reply class 1

----------
Species on record: Rattus norvegicus
Experiment: Open TG-GATES - Regimen: Daily Repeat
Assay type: toxicity, organism-based, Sprague-Dawley
Design: regimen Daily Repeat, gender Male, age 6 weeks
Details: in vivo, po, 100 mg/kg, […], tissue Blood, route gavage, dose level Low, time 14 day
For each entry below, report its MCHC value.
Report only the number, with the unit % understood.

-- ask Please report the recorded MCHC for COC1=CC(=O)C[C@@H](C)[C@]12Oc1c(Cl)c(OC)cc(OC)c1C2=O .
-- reply 33.7

-- ask Form field: reported MCHC of NC(N)=Nc1nc(CSCCC(N)=NS(N)(=O)=O)cs1
-- reply 34.8

-- ask Entry under review: CCOC(=O)CCC(=O)O[C@H]1[C@H](O[C@@H]2[C@@H](C)[C@H](O[C@H]3C[C@@](C)(OC)[C@@H](O)[C@H](C)O3)[C@@H](C)C(=O)O[C@H](CC)[C@@](C)(O)[C@H](O)[C@@H](C)C(=O)[C@H](C)C[C@@]2(C)O)O[C@H](C)C[C@@H]1N(C)C [ERYTHROMYCIN ETHYLSUCCINATE] . Reported MCHC?
-- reply 34.9

-- ask Would you kindly share the measured MCHC for CCOc1ccc(NC(=O)CC(C)O)cc1 (stereo not given) ?
-- reply 33.9

-- ask I have this compound here, COc1ccc2[nH]c([S+]([O-])Cc3ncc(C)c(OC)c3C)nc2c1 (stereo not given) , and I need its recorded MCHC.
-- reply 34.7

----------
Species on record: Rattus norvegicus
Assay: Open TG-GATES - Regimen: Daily Repeat
Format: toxicity, organism-based, Sprague-Dawley
Parameters: regimen Daily Repeat, gender Male, age 6 weeks
Details: in vivo, po, 300 mg/kg, […], tissue Blood, route gavage, dose level Middle, time 28 day
OBSERVABLE: MCHC (%)
The reply should contain only the number, in %.

-- ask // lookup MCHC for COc1ccc2[nH]c([S+]([O-])Cc3ncc(C)c(OC)c3C)nc2c1 (stereo not given) [OMEPRAZOLE]
-- reply 34.3

-- ask So what does the record say about MCHC for COC1=CC(=O)C[C@@H](C)[C@]12Oc1c(Cl)c(OC)cc(OC)c1C2=O [GRISEOFULVIN] ?
-- reply 34

-- ask What measured MCHC goes with CCOC(=O)CCC(=O)O[C@H]1[C@H](O[C@@H]2[C@@H](C)[C@H](O[C@H]3C[C@@](C)(OC)[C@@H](O)[C@H](C)O3)[C@@H](C)C(=O)O[C@H](CC)[C@@](C)(O)[C@H](O)[C@@H](C)C(=O)[C@H](C)C[C@@]2(C)O)O[C@H](C)C[C@@H]1N(C)C [ERYTHROMYCIN ETHYLSUCCINATE] ?
-- reply 34.3

-- ask Entry NC(N)=Nc1nc(CSCCC(N)=NS(N)(=O)=O)cs1 [FAMOTIDINE] : reported MCHC = ?
-- reply 35.4

-- ask For CCOc1ccc(NC(=O)CC(C)O)cc1 (stereo not given) [BUCETIN] , what is its reported MCHC?
-- reply 34.5

----------
Organism: Rattus norvegicus
Assay: Open TG-GATES - Regimen: Single
Assay type: toxicity, organism-based, Sprague-Dawley
Design: regimen Single, gender Male, age 6 weeks
Conditions: in vivo, po, 0 mg/kg, 6 h, tissue Plasma, route gavage, dose level Control
Could you please report measured TC for the items listed next?
Value expressed in mg/dL; do not type the unit.

-- ask Any idea what its TC is? The compound is O=C(CCCN1CCC(O)(c2ccc(Cl)cc2)CC1)c1ccc(F)cc1 [HALOPERIDOL]
-- reply 80.2

-- ask Report TC for CN(C)CCCN1c2ccccc2CCc2ccccc21 [IMIPRAMINE] please.
-- reply 72.6

-- ask Given the entry CCOC(=O)CCC(=O)O[C@H]1[C@H](O[C@@H]2[C@@H](C)[C@H](O[C@H]3C[C@@](C)(OC)[C@@H](O)[C@H](C)O3)[C@@H](C)C(=O)O[C@H](CC)[C@@](C)(O)[C@H](O)[C@@H](C)C(=O)[C@H](C)C[C@@]2(C)O)O[C@H](C)C[C@@H]1N(C)C [ERYTHROMYCIN ETHYLSUCCINATE] , report its measured TC.
-- reply 78.8

-- ask I'd like to know its TC. The compound in question is CN(C)CCN(Cc1cccs1)c1ccccn1
-- reply 74.8

-- ask Value lookup for TC; key = CN(C)CCCN1c2ccccc2CCc2ccc(Cl)cc21 [CLOMIPRAMINE]
-- reply 71.8

-- ask Item under review: NNC(=O)c1ccncc1 [ISONIAZID] . Reported TC?
-- reply 78.4

-- ask Find the recorded TC belonging to C[C@@H]1C[C@H]2[C@@H]3CCC4=CC(=O)C=C[C@]4(C)[C@@]3(F)[C@@H](O)C[C@]2(C)[C@@]1(O)C(=O)CO [DEXAMETHASONE] and report it.
-- reply 84.8

-- ask Form field: reported TC of COC1=CC(=O)C[C@@H](C)[C@]12Oc1c(Cl)c(OC)cc(OC)c1C2=O [GRISEOFULVIN]
-- reply 73.4

-- ask # TC lookup, item CCCNC(=O)NS(=O)(=O)c1ccc(Cl)cc1 [CHLORPROPAMIDE]
-- reply 90.6

-- ask # query: TC of entry Cc1ccc(C)c(OCCCC(C)(C)C(=O)O)c1 [GEMFIBROZIL]
-- reply 86.2

-- ask Requested field: TC. Item: CN1C(=O)CN=C(c2ccccc2)c2cc(Cl)ccc21 [DIAZEPAM]
-- reply 74.8

-- ask Suppose we examine the compound COc1ccc2[nH]c([S+]([O-])Cc3ncc(C)c(OC)c3C)nc2c1 (stereo not drawn) [OMEPRAZOLE] ; what TC value has been reported?
-- reply 73.4

-- ask Look up TC: COc1cc2c(c(OC)c1OC)-c1ccc(OC)c(=O)cc1[C@@H](NC(C)=O)CC2 [COLCHICINE]
-- reply 73.2

-- ask Quick one: TC of CCOc1ccc(NC(=O)CC(C)O)cc1 (stereo not drawn) [BUCETIN] ?
-- reply 77.6

-- ask // lookup TC for CC1=C(/C=C/C(C)=C/C=C/C(C)=C/CO)C(C)(C)CCC1 [RETINOL]
-- reply 80.6

-- ask # input compound: CC/C(=C(\c1ccccc1)c1ccc(OCCN(C)C)cc1)c1ccccc1 [TAMOXIFEN] ; wanted: its TC
-- reply 86.5

-- ask // TC lookup, key: NC(N)=Nc1nc(CSCCC(N)=NS(N)(=O)=O)cs1 [FAMOTIDINE]
-- reply 80.6

-- ask If you can, please state the reported TC value of CC(C)OC(=O)C(C)(C)Oc1ccc(C(=O)c2ccc(Cl)cc2)cc1 [FENOFIBRATE] .
-- reply 82.4
